// provenance: ChEMBL document CHEMBL4359867

# Test system: NCI-H446
# protocol: Antiproliferative activity against human NCI-H446 cells assessed as inhibition of cell growth at 0.5 uM after 48 hrs under hypoxic condition (200 uM CoCl2) by CCk-8 assay relative to control (reference value: 65.84%)
# Format: functional
measurement.name: inhibition (INH)

// worked examples, inhibition (INH) included
>>> endpoint_result("COc1cc2c(Nc3ccc(F)cc3)ncnc2cc1OCCOCCNC(=O)Cn1cnc([N+](=O)[O-])n1")
"78.7%"
>>> endpoint_result("COc1cc2c(Nc3ccc(Br)cc3F)ncnc2cc1OCCOCCNC(=O)Cn1cnc([N+](=O)[O-])n1")
"84.37%"
>>> endpoint_result("COc1cc2c(Nc3ccc(Cl)c(Cl)c3F)ncnc2cc1OCCOCCNC(=O)Cn1cnc([N+](=O)[O-])n1")
"77.9%"

Next item in the queue.
Could you tell me which inhibition (INH) is on file for COc1cc2/c(=N/c3ccc(Br)cc3F)nc[nH]c2cc1OCC1CCN(C)CC1 ? 77.67%
